Reported inhibition values are given for each entry in this list.
- Assay Explanation: RAM pathway blockade in budding yeast – dse1pr::URA3 reporter, 5-FOA selection, pilot screen (AID 869);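 further: 0% = DMSO wells with no growth and 100% = 10 µM 1-NA-PP1 with full growth; RAM network block rescues cells from 5-FOA so hits raise OD615 growth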
- Experimental Parameters: S. cerevisiae dse1pr::URA3 5-FOA growth, OD615, 2 d; at 10 µM; stronger effect = higher value; strain carries analog-sensitive mutant Cbk1 kinase
Answer with a number only, understood to be in %.

Some solved cases for reference:
{"Compound": "CC1CCN(c2nc(-c3ccccc3)c(C#N)c(=O)[nH]2)CC1", "Output Unit": "%", "inhibition": 1.46}
{"Compound": "CCOC(=O)N1CCN(C(c2ccc(Cl)cc2)c2sc3nc(C)nn3c2O)CC1 (stereo unspecified)", "Output Unit": "%", "inhibition": 0.72}
{"Compound": "COc1cccc(N(C(C)=O)c2nc(C)cc(C)c2C#N)c1", "Output Unit": "%", "inhibition": 1.36}
{"Compound": "CCOC(=O)C1CCN(C(=O)CN(c2ccc(OC)cc2)S(=O)(=O)c2c(C)noc2C)CC1", "Output Unit": "%", "inhibition": 2.41}
{"Compound": "CC(C)Oc1ccc(/C(O)=C2/C(=O)C(=O)N(CCCN3CCOCC3)C2c2ccncc2)cc1 (stereo unspecified)", "Output Unit": "%", "inhibition": 0.95}
{"Compound": "CCc1ccc(C(=O)NC2CCCCC2)s1", "Output Unit": "%", "inhibition": -0.215}

// query inhibition value for entry CCCC(=O)NCCc1nc2ccccc2n1CCC 2.72

// query inhibition value for entry O=C(Nc1nc(-c2ccncc2)cs1)C1COc2ccccc2O1 (stereo unspecified) 0.095

// query inhibition value for entry CCOC(=O)c1ccccc1NC(=O)CSc1nccn1C 1.55
